Origin of the recorded values: PubChem BioAssay AID2060901

Some compounds, each annotated with its measured viability, T/C.
# Test system: 422866-222-R5-J1-PDC complex spheroids viability;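 also: spheroids exposed to compounds for 7 days; 100% = DMSO vehicle control viability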
# Assay overview: Anticancer human tumor 422866-222-R5-J1-PDC patient-derived pancreatic adenocarcinoma cell line growth inhibition [RAS]
# Test context: second compound 1 µM; first compound 0.0316 µM; stronger effect = lower value
# Description: RAS pathway inhibitors in Combinations in Complex Spheroids A high-throughput screen of multi-cell type tumor spheroids was designed to identify active combinations of RAS pathway inhibitors and targeted small molecules. Complex spheroids include a stromal component modeled by human endothelial cells (HUVEC) and fibroblasts modeled by human mesenchymal stem cells (MSCs). […] Compounds. […] If the clinical Cmax for an agent had not been determined, the highest concentration tested was 10 microM. […]
Endpoint name: viability, T/C (%)

compound="C[C@@H](NC(=O)c1ncnc(N)c1Cl)c1ncc(C(=O)Nc2cc(C(F)(F)F)c(Cl)cn2)s1 + C#Cc1c(F)ccc2cc(O)cc(-c3ncc4c(N5CC6CCC(C5)N6)nc(OCC56CCCN5CC(F)C6)nc4c3F)c12" val=43
compound="CCN1CCN(Cc2ccc(Nc3ncc(F)c(-c4cc(F)c5nc(C)n(C(C)C)c5c4)n3)nc2)CC1 + C#Cc1c(F)ccc2cc(O)cc(-c3ncc4c(N5CC6CCC(C5)N6)nc(OCC56CCCN5CC(F)C6)nc4c3F)c12" val=43
compound="NC1c2ccccc2OC12CCN(c1cnc3c(N4CCCc5ncccc54)n[nH]c3n1)CC2 (stereo not drawn) + C=CC(=O)N1CCN(c2nc(OCC3CCCN3C)nc3c(F)c(-c4nc(N)cc(C)c4C(F)(F)F)c(Cl)cc23)C(C)C1" val=18.7
compound="CC(C)n1nc(-c2ccc3oc(N)nc3c2)c2c(N)ncnc21 + C=CC(=O)N1CCN(c2nc(OCC3CCCN3C)nc3c(F)c(-c4nc(N)cc(C)c4C(F)(F)F)c(Cl)cc23)C(C)C1" val=17.3
compound="CCC(CC)c1cc(NC2CCC(N)C2)n2nccc2n1 (stereo not drawn) + C#Cc1c(F)ccc2cc(O)cc(-c3ncc4c(N5CC6CCC(C5)N6)nc(OCC56CCCN5CC(F)C6)nc4c3F)c12" val=50.2
compound="CC(C)NCC(C(=O)N1CCN(c2ncnc3c2C(C)CC3O)CC1)c1ccc(Cl)cc1 (stereo not drawn) + C=CC(=O)N1CCN(c2nc(OCC3CCCN3C)nc3c(F)c(-c4nc(N)cc(C)c4C(F)(F)F)c(Cl)cc23)C(C)C1" val=23.6
compound="CC(C)n1nc(-c2ccc3oc(N)nc3c2)c2c(N)ncnc21 + C#Cc1c(F)ccc2cc(O)cc(-c3ncc4c(N5CC6CCC(C5)N6)nc(OCC56CCCN5CC(F)C6)nc4c3F)c12" val=44
compound="C=CC(=O)Nc1cc(Nc2nccc(-c3cn(C)c4ccccc34)n2)c(OC)cc1N(C)CCN(C)C + C#Cc1c(F)ccc2cc(O)cc(-c3ncc4c(N5CC6CCC(C5)N6)nc(OCC56CCCN5CC(F)C6)nc4c3F)c12" val=34.1
